Taken from paper PMC5700166.

target-entity: GST-Ap-NF-kB RHD (Exaiptasia pallida (Aiptasia), UniProt A0A913YAJ5 2-422)
Sequence: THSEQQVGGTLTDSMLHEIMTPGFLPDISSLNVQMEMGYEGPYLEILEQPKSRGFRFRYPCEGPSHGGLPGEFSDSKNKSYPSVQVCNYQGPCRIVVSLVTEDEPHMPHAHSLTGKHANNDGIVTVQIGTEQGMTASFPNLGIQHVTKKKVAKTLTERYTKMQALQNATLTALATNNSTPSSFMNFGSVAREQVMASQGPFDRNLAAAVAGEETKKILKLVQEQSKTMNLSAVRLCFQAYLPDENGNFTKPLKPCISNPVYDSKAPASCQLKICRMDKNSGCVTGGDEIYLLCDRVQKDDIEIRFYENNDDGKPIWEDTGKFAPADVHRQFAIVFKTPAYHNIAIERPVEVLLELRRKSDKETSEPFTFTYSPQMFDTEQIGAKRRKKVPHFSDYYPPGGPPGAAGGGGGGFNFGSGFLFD
assay-protocol: protein-binding microarray (PBM); PBM: ~300 nM protein, 6 mM HEPES pH 7.8, 80 mM KCl, 0.5 mM EDTA, 0.5 mM EGTA, 6% glycerol, 35 ng/ul poly-dIdC, 1% milk, 1 h, room temperature; Ap Aiptasia and Nv Nematostella (sea anemones) / Co Capsaspora / Aq Amphimedon (sponge) / Dm Drosophila / Hu human; RHD is the Rel homology domain; high values mean tight binding
measurement-conditions: dsDNA, one strand shown
property-name: binding signal (z-score)

{"columns": ["seq-string", "unit-spec", "value-observed"],
 "data": [
  ["CCGATTAACATCAAGGGGTTTTCTGATGTTAATCGGGTCTTGATTCGCTTGACGCTGCTG", "z-score", 7.68],
  ["CCGATTAACATCAAATTGTCCCCTGATGTTAATCGGGTCTTGATTCGCTTGACGCTGCTG", "z-score", 4.64],
  ["CCGATTAACATCAGATCTCCCCCTGATGTTAATCGGGTCTTGATTCGCTTGACGCTGCTG", "z-score", 6.98],
  ["CCGATTAACATCAATTTCCCCCCTGATGTTAATCGGGTCTTGATTCGCTTGACGCTGCTG", "z-score", 7.89],
  ["CCGATTAACATCAAATGTGGGAATGATGTTAATCGGGTCTTGATTCGCTTGACGCTGCTG", "z-score", 1.11],
  ["CCGATTAACATCAAGGGGGGGTATGATGTTAATCGGGTCTTGATTCGCTTGACGCTGCTG", "z-score", 4.96],
  ["CCGATTAACATCAGGAATCTCCCTGATGTTAATCGGGTCTTGATTCGCTTGACGCTGCTG", "z-score", 3.91],
  ["CCGATTAACATCACATACCCCCCTGATGTTAATCGGGTCTTGATTCGCTTGACGCTGCTG", "z-score", 4.69],
  ["CCGATTAACATCAGGGCATTCCATGATGTTAATCGGGTCTTGATTCGCTTGACGCTGCTG", "z-score", 1.14],
  ["CCGATTAACATCACTGAAATCCCTGATGTTAATCGGGTCTTGATTCGCTTGACGCTGCTG", "z-score", 2.61],
  ["CCGATTAACATCAAATGCCCCCCTGATGTTAATCGGGTCTTGATTCGCTTGACGCTGCTG", "z-score", 5.13],
  ["CCGATTAACATCAGGGGGGAGAATGATGTTAATCGGGTCTTGATTCGCTTGACGCTGCTG", "z-score", 6],
  ["CCGATTAACATCAGAACACCCCCTGATGTTAATCGGGTCTTGATTCGCTTGACGCTGCTG", "z-score", 5.58],
  ["CCGATTAACATCAACCTTTCCCCTGATGTTAATCGGGTCTTGATTCGCTTGACGCTGCTG", "z-score", 5.33],
  ["CCGATTAACATCAAGATTTCCCCTGATGTTAATCGGGTCTTGATTCGCTTGACGCTGCTG", "z-score", 8.78],
  ["CCGATTAACATCAAATGTTCCCCTGATGTTAATCGGGTCTTGATTCGCTTGACGCTGCTG", "z-score", 5.58],
  ["CCGATTAACATCACACATCCCCCTGATGTTAATCGGGTCTTGATTCGCTTGACGCTGCTG", "z-score", 4.83],
  ["CCGATTAACATCAGGAATTGCCCTGATGTTAATCGGGTCTTGATTCGCTTGACGCTGCTG", "z-score", 1.16],
  ["CCGATTAACATCACCACCCCCCCTGATGTTAATCGGGTCTTGATTCGCTTGACGCTGCTG", "z-score", 4.06],
  ["CCGATTAACATCAAAAAACCCCTTGATGTTAATCGGGTCTTGATTCGCTTGACGCTGCTG", "z-score", 8.1],
  ["CCGATTAACATCAAAACACTCCCTGATGTTAATCGGGTCTTGATTCGCTTGACGCTGCTG", "z-score", 2.25],
  ["CCGATTAACATCACTAGGCGGGATGATGTTAATCGGGTCTTGATTCGCTTGACGCTGCTG", "z-score", 1.56],
  ["CCGATTAACATCAGGGGAGGTTATGATGTTAATCGGGTCTTGATTCGCTTGACGCTGCTG", "z-score", 4.62],
  ["CCGATTAACATCATCTCCCCCCATGATGTTAATCGGGTCTTGATTCGCTTGACGCTGCTG", "z-score", 4.75],
  ["CCGATTAACATCAAGGGAGTTCCTGATGTTAATCGGGTCTTGATTCGCTTGACGCTGCTG", "z-score", 4.53],
  ["CCGATTAACATCACACATTTCCCTGATGTTAATCGGGTCTTGATTCGCTTGACGCTGCTG", "z-score", 2.78],
  ["CCGATTAACATCAAGGGAATTTCTGATGTTAATCGGGTCTTGATTCGCTTGACGCTGCTG", "z-score", 6.34],
  ["CCGATTAACATCAGGGAATCACCTGATGTTAATCGGGTCTTGATTCGCTTGACGCTGCTG", "z-score", 6.2],
  ["CCGATTAACATCAAAAACTTCCCTGATGTTAATCGGGTCTTGATTCGCTTGACGCTGCTG", "z-score", 5.3],
  ["CCGATTAACATCAAAATATTCCCTGATGTTAATCGGGTCTTGATTCGCTTGACGCTGCTG", "z-score", 6.25],
  ["CCGATTAACATCAAGGCATTCCCTGATGTTAATCGGGTCTTGATTCGCTTGACGCTGCTG", "z-score", 1.97],
  ["CCGATTAACATCAAGGGGGTACCTGATGTTAATCGGGTCTTGATTCGCTTGACGCTGCTG", "z-score", 5.62],
  ["CCGATTAACATCAGGGGTTTTACTGATGTTAATCGGGTCTTGATTCGCTTGACGCTGCTG", "z-score", 5.39],
  ["CCGATTAACATCAGGGAATCCACTGATGTTAATCGGGTCTTGATTCGCTTGACGCTGCTG", "z-score", 3.05],
  ["CCGATTAACATCAGGGGGGAATATGATGTTAATCGGGTCTTGATTCGCTTGACGCTGCTG", "z-score", 7.1],
  ["CCGATTAACATCAAGGGAATTCCTGATGTTAATCGGGTCTTGATTCGCTTGACGCTGCTG", "z-score", 7.9]
]}
